Each entry below carries its recorded GI50.
- Tested on: SNB-19
- Test Summary: Growth inhibition of human SNB19 cells after 48 hrs by SRB assay
- Assay type: functional
- Condition: SNB-19, 48 h

# Substance Smiles, Comparison Operator, GI50 (nM)
measured = [
    ("COc1ccc(/C=C\\c2cc(OC)c(OC)c(OC)c2)cc1O", "=", 4),
    ("COc1ccc(-c2nn[nH]c2-c2cc(OC)c3c(c2OC)OCO3)cc1", "=", 1800),
    ("COc1ccc(-c2cnnn2-c2cc(OC)c3c(c2)OCO3)cc1", ">", 100000),
    ("COc1ccc(-c2nn[nH]c2-c2cc(OC)c(OC)c(OC)c2)cc1", "<", 10),
]
